biological target: CD28 (Homo sapiens, UniProt P10747); assay: CD28 costimulation via Fc receptor or PD-L1 dependent cross-linking (Jurkat/IL2 + K562/OKT3 +/- PD-L1); assay type: cell-based; design: host or cells: Jurkat cells expressing an IL-2-luciferase reporter; conditions: K562/0KT3 aAPC; 0.6 nM; luciferase signal
This section presents molecules with their documented CD28 costimulation, FcR Dependent Cross-Linking (No PD-L1), 0.6 nM values.
Keep the answer to the number alone.

Worked set:
{"molecule": "E23G/A26S/E35D/T62N/A71D/L72V/L85M: variant CD80 IgV-Fc, IgV SEQ ID NO:216 (protein) VIHVTKEVKEVATLSCGHNVSVGELSQTRIYWQKDKKMVLTMMSGDMNIWPEYKNRTIFDINNNLSIVILDVRPSDEGTYECVVMKYEKDAFKREHLAEVTLSVKAD", "measured.value": 2022}
{"molecule": "A71D/L72V/E95K: variant CD80 IgV-Fc, IgV SEQ ID NO:192 (protein) VIHVTKEVKEVATLSCGHNVSVEELAQTRIYWQKEKKMVLTMMSGDMNIWPEYKNRTIFDITNNLSIVILDVRPSDEGTYECVVLKYEKDAFKRKHLAEVTLSVKAD", "measured.value": 1821}

Turning to the following molecule.
Incoming: I have this molecule here, E35G/K54E/A71D/L72P: variant CD80 IgV-Fc, IgV SEQ ID NO:219 (protein) VIHVTKEVKEVATLSCGHNVSVEELAQTRIYWQKGKKMVLTMMSGDMNIWPEYENRTIFDITNNLSIVILDPRPSDEGTYECVVLKYEKDAFKREHLAEVTLSVKAD , and I need its recorded CD28 costimulation, FcR Dependent Cross-Linking (No PD-L1), 0.6 nM.
Outgoing: 1337
